For each entry below, report its activity at 10 µM value.
molecular target: Amyloid β protein 1-40 (Homo sapiens, UniProt P05067); construct: Amyloid β protein 1-40 (bought from Peptide Laboratory); purchased Peptide Laboratory; test: Fluorescence Congo Red Method; type: binding; conditions: 1 h; compound 10 μM, amyloid β protein 5 μM, Congo red 0.3 μM; read-out: Binding Percentage of Compound in the presence of 0.3 μM CR
Sequence (P05067 672-711): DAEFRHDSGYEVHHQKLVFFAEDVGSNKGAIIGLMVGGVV
Answers are plain numbers, in %.

CN1CCN(c2ncc(/C=C/c3nc4ccc(OC(CO)CF)cc4o3)s2)CC1 (centres unmarked) | 36.4

Return reported activity at 10 µM values for all items listed beneath this line.
1. FCCOc1ccc2nc(/C=C/c3cnc(N4CCOCC4)s3)oc2c1
2. OCC(CF)Oc1ccc2nc(/C=C/c3cnc(N4CCSCC4)s3)oc2c1 (centres unmarked)
3. CNc1ncc(/C=C/c2nc3ccc(OC(CO)CF)cc3o2)s1 (centres unmarked)
4. CN(C)c1ncc(/C=C/c2nc3ccc(OC(CO)CF)cc3o2)s1 (centres unmarked)
5. OCC(CF)Oc1ccc2nc(/C=C/c3cnc(N4CCCC4)s3)oc2c1 (centres unmarked)
6. OCC(CF)Oc1ccc2nc(/C=C/c3cnc(N4CCCOCC4)s3)oc2c1 (centres unmarked)
7. OCC(CF)Oc1ccc2nc(/C=C/c3cnc(N4CCCOC4)s3)oc2c1 (centres unmarked)

[24.1, 29.9, 21.6, 22.9, 20.6, 21.5, 24.8]

Return reported activity at 10 µM values for all items listed beneath this line.
1. OCC(CF)Oc1ccc2nc(/C=C/c3cnc(N4CCCCC4)s3)oc2c1 (centres unmarked)
2. OCC(CF)Oc1ccc2nc(/C=C/c3cnc(N4CCCCCC4)s3)oc2c1 (centres unmarked)
3. OCC(CF)Oc1ccc2nc(/C=C/c3cnc(N4CCOCC4)s3)oc2c1 (centres unmarked)

1: 21.2; 2: 41.3; 3: 37.3
